B1: Cyclin-F, residues 28 to 80; numbered along this chain, P41002 (parent)
chain: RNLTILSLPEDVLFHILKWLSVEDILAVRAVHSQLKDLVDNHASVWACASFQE

variants of: B1; test: abundance fitness (aPCA) (normalised: wild type 0, dead -1); higher = more abundant; growth selection in yeast, the domain comes from the species named; conditions: Homo sapiens
experimental-endpoint: abundance fitness

The cases that follow already have their abundance fitness on record.
>>> result("K18I")
-0.449
>>> result("V39Q")
-0.362
>>> result("V28F")
-0.396

Quick one: give me abundance fitness for each item below, same order please.
1. D40M
2. R29N
3. C48V

Response:
[-0.884, -0.955, -0.406]

# return abundance fitness for each item in the list
1. E53G
2. D37G
3. D37V
4. L6R
5. H42I

Response:
1. -0.069
2. -0.044
3. -0.049
4. -0.83
5. -0.075
